Target: angiotensin II receptor
Assay: Displacement of 125I- or 3H-angiotensin II from receptor preparations from various organs (liver, lung, adrenal gland, brain etc.)
Conditions: Table 1; radioligand displacement, 25° C., 90 min, pH 7.4
Method: Alternatively, the affinity of the compounds of the formula I for the angiotensin II receptor can be determined by measurement of the ^125 I-angiotensin II or ^3 H-angiotensin II displacement of receptor preparations from various organs (liver, lung, adrenal gland, brain etc.). […] The degree of displacement of the radioligand from the receptor by the test compounds is determined by measurement of the receptor-bound radioactivity on the filters by means of a beta- or gamma-spectrometer. […]
VALUE KIND: pIC50
Numbers only, as −log10 of the molar value.

Known pIC50 results, listed for orientation:
{"columns": ["COMPOUND", "VALUE KIND", "ENDPOINT VALUE"],
 "data": [
  ["CCCCc1nc(SC)c(C(=O)OCC)n1Cc1ccc(-c2ccccc2S(=O)(=O)NS(=O)(=O)c2cccs2)cc1", "pIC50", 7.66],
  ["CCCCc1nc(SC)c(C(=O)O)n1Cc1ccc(-c2ccccc2S(=O)(=O)NC(=O)n2cccc2)cc1", "pIC50", 8.55],
  ["CCCCc1nc(SC)c(C(=O)O)n1Cc1ccc(-c2ccccc2S(=O)(=O)NC(=O)NCCc2ccccc2)cc1", "pIC50", 9.04],
  ["CCCCc1nc(SC)c(C(=O)O)n1Cc1ccc(-c2ccccc2S(=O)(=O)NC(=O)NCc2ccccn2)cc1", "pIC50", 9.52],
  ["CCCCc1nc(SC)c(C(=O)OCC)n1Cc1ccc(-c2ccccc2S(=O)(=O)NC(=O)NC)cc1", "pIC50", 8.52],
  ["CCCCc1nc(SC)c(C(=O)OCC)n1Cc1ccc(-c2ccccc2S(=O)(=O)NC(=O)OCc2cccs2)cc1 [Example 159]", "pIC50", 8.06]
]}

Consider the record given below.
Need pIC50, item C=CCNC(=O)NS(=O)(=O)c1ccccc1-c1ccc(Cn2c(CCCC)nc(Cl)c2C=O)cc1
8.06
